Assay: Viability qHTS for spleen associated tyrosine kinase inhibitor (SYKi) drug resistant MV4-11 cells (AID 1963824); also: nearly all actives have a fitted effect of over 35% in size
Conditions: SYKi-resistant MV4-11 viability, CellTiter-Glo, 72 h; series mostly up to 45 µM
Inconclusive results are not listed. Activity calls are given as the source filed them. Calls follow the shape of the dose curve; as a rule, active = well fitted cell-killing curve with a large enough effect; inconclusive = small, poorly fitted or top-dose-only effect, or effect the other way; inactive = no such curve, though single readings can be large or run the other way.
Possible outcomes: active, inactive

>>> group("C/C=C(\\C)C(=O)O[C@@H]1[C@@H](C)[C@]2(O)[C@@H]3C=C(C)C(=O)[C@H]3CC(CO)=C[C@H]2C2C(C)(C)[C@@]21OC(=O)C(C)CC (stereo not given in full)")
"active"
>>> group("COc1cc2nccc(Oc3ccc(NC(=O)Nc4cc(C)on4)c(Cl)c3)c2cc1OC")
"active"
>>> group("Nc1nc(O)c(C2=C3C(=Nc4ccccc43)C(=O)NCC2)[nH]1")
"active"
>>> group("CN(C)[C@@H]1C(=O)C(C(N)=O)=C(O)[C@@]2(O)C(=O)C3=C(O)c4c(O)cccc4C[C@H]3C[C@@H]12")
"inactive"
>>> group("COc1ccc(C(=O)c2ccccc2O)c(O)c1")
"active"
>>> group("C=C1C(=O)O[C@@H]2CC(C)=C([C@@H](C)CCCO)[C@@H](OC(=O)C(C)C)[C@H]12")
"active"
>>> group("Cc1ccccc1CN1C2=NCCN2C(=O)C2=C1CCN(Cc1ccccc1)C2")
"active"
>>> group("O=C(CCCCc1ccc2ccccc2c1)C(F)(F)F")
"inactive"
>>> group("N#CC(CCCN1CCC(O)(c2ccc(Cl)cc2)CC1)(c1ccccc1)c1ccccc1")
"active"
>>> group("O=C(O)Cc1ccc(-c2ccccc2)cc1")
"inactive"
>>> group("C[C@@]1(C(=O)Nc2ccc(F)nc2)CCCN1c1nc(Nc2cc(C3CC3)[nH]n2)c2cccn2n1")
"active"
>>> group("CN[C@@H]1CN(c2ccc3c(=O)c(C(=O)O)cn(-c4nccs4)c3n2)C[C@@H]1OC")
"active"
>>> group("NC(=O)c1cnccn1")
"inactive"
>>> group("COC(=O)C1=COC(O[C@@H]2O[C@H](CO)[C@@H](O)[C@H](O)[C@H]2O)[C@@H]2[C@@](C)(O)[C@@H](OC(=O)/C=C/c3ccccc3)C[C@]12O (stereo not given in full)")
"inactive"
>>> group("COc1ccc(-c2cc(=O)c3c(O)cc(O)cc3o2)cc1O")
"active"
>>> group("CC(C(O)c1ccccc1)N(C)CCOC(c1ccccc1)c1ccccc1 (stereo not given)")
"active"
>>> group("O=S(=O)(/N=C/c1c(O)ccc2ccccc12)c1cccs1")
"inactive"
>>> group("COc1ccc(-c2ccc3c(N4CCOCC4)nc(N4CC(C)OC(C)C4)nc3n2)cc1CO (stereo not given)")
"active"
>>> group("CO/N=C(\\C(=O)O)c1csc(NC(=O)CCl)n1")
"inactive"
>>> group("C=C1CC23CC1(O)CCC2C1=CC2OC(=O)C(C)(C2O)C1C3C(=O)O (stereo not given)")
"inactive"
